# Assay Comment: Binding affinity against Opioid receptor kappa 1 of calf cortex using [3H]-U-69,593 as radioligand
Where a name gives a salt, the structure may show the parent alone.

| Compound | Ki, µM |
| --- | --- |
| COCCC1CC2CN3CCc4c([nH]c5ccccc45)C(C(=O)OC)(C2)C13 (stereo not drawn) [(-)-18-Methoxycoronaridine hydrochloride] | 4.8 |

###

# Assay Comment: Binding affinity against Opioid receptor delta 1 of calf cortex using […] as radioligand
Structures can show the parent of a compound that is named as a salt.

| Compound | Ki, µM |
| --- | --- |
| COCCC1CC2CN3CCc4c([nH]c5ccccc45)C(C(=O)OC)(C2)C13 (stereo not drawn) [(-)-18-Methoxycoronaridine hydrochloride] | 3.5 |
